Attribution: ChEMBL document CHEMBL1134728

assay: Deoxyribose degradation measured as hydroxyl radical generation in HaCaT cell at 75 uM expressed as malondialdehyde released; format: functional, Homo sapiens
measurement-name: DD

Enquiry: So what does the record say about DD for O=C1c2c(O)cccc2C(C(=O)c2cc3ccccc3[nH]2)c2cccc(O)c21 ?
Return: 0.17 uM mM-1

Enquiry: Need DD of O=C1c2c(O)cccc2Cc2cccc(O)c21 [ANTHRALIN] , thanks.
Return: 2.89 uM mM-1

Enquiry: Request the reported DD associated with O=C1c2c(O)cccc2C(C(=O)c2ccsc2)c2cccc(O)c21
Return: 0.82 uM mM-1

Enquiry: Data request, read-out DD, for O=C1c2c(O)cccc2C(C(=O)c2ccccc2)c2cccc(O)c21
Return: 2.31 uM mM-1

Enquiry: Bench note: what DD did O=C1c2c(O)cccc2C(C(=O)/C=C/c2ccco2)c2cccc(O)c21 show?
Return: 1.69 uM mM-1

Enquiry: Which DD reading was recorded for the molecule O=C1c2c(O)cccc2C(C(=O)c2ccco2)c2cccc(O)c21 ?
Return: 0.41 uM mM-1

Enquiry: I'd like to know its DD. The molecule in question is O=C1c2c(O)cccc2C(C(=O)c2cccs2)c2cccc(O)c21
Return: 0.65 uM mM-1

Enquiry: For O=C1c2c(O)cccc2C(C(=O)c2ccc[nH]2)c2cccc(O)c21 , what is its reported DD?
Return: 1.77 uM mM-1

Enquiry: Endpoint output: DD of O=C1c2c(O)cccc2C(C(=O)/C=C/c2cccs2)c2cccc(O)c21 . Value?
Return: 1.13 uM mM-1
